Listed below: IC50 values for each entry.
Target: KRAS (G12D)::SOS1 protein-protein interaction (Homo sapiens (Human), UniProt P01116, G12D)
Sequence (P01116 other isoform, or with tags, fused parts or gaps G12D): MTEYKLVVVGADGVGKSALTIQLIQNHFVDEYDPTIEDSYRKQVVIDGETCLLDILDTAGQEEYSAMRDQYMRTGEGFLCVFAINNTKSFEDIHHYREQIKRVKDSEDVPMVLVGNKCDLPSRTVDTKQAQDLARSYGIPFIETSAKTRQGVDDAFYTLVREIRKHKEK
Test: KRAS::SOS1 AlphaScreen binding assay (KRAS G12D)
Details: GDP
The answer is to be given in nM; state only the numeric part.

Example entries begin here.
{"columns": ["compound", "unitLabel", "IC50"],
 "data": [
  ["C[C@H](Oc1nc(-c2onc3c2CCC[C@@]32CCCc3sc(N)c(C#N)c32)nc2c1n(C)c(=O)n2C12COC(C1)C2)[C@@H]1CCCN1C [I-15]", "nM", 2],
  ["C[C@H](Oc1nc(-c2noc3c2CCC[C@@]32SCCc3sc(N)c(C#N)c32)nc2c1COC[C@]21CCOC1)[C@@H]1CCCN1C [II-16]", "nM", 1],
  ["C[C@H](Oc1nc(-c2onc3c2CCC[C@@]32CCCc3sc(N)c(C#N)c32)nc2c1n(C)c(=O)n2[C@H]1CCC[C@@H]1O)[C@@H]1CCCN1C [I-19]", "nM", 3],
  ["C[C@H](Oc1nc(-c2noc3c2CCC[C@@]32CCCc3sc(N)c(C#N)c32)nc2c1CN(C1COC1)C[C@]21CCOC1)[C@@H]1CC[C@H](C)N1C [II-17]", "nM", 1]
]}

Query block: Could you please provide reported IC50 for COCCn1c(=O)n([C@@H]2CCOC2)c2nc(-c3onc4c3CCC[C@@]43CCCc4sc(N)c(C#N)c43)nc(O[C@@H](C)[C@@H]3CCCN3C)c21 [I-1] ? Thanks!
Result block: 1

----------
Experiment: Plasma protein binding assay (PPB), equilibrium dialysis
Type: in vitro ADME
Settings: bovine, 10% FCS in PBS, read-out: PPB 10% FCS (% fu)
measuredEndpoint: fraction unbound
The response must contain the number and no unit.

{"columns": ["compound", "fraction unbound"],
 "data": [
  ["CO[C@@H]1C[C@@H]([C@H](C)Oc2nc(-c3noc4c3CCC[C@@]43CCCc4sc(N)c(C#N)c43)nc3c2COC[C@]32CCOC2)N(C)C1 [II-11]", 0.09],
  ["C[C@H](Oc1nc(-c2onc3c2CCC[C@@]32CCCc3sc(N)c(C#N)c32)nc2c1n(C)c(=O)n2[C@@H]1CCOC1)[C@@H]1CC[C@H](C)N1C [I-26]", 0.17],
  ["C[C@H](Oc1nc(-c2onc3c2CCC[C@@]32CCCc3sc(N)c(C#N)c32)nc2c1CN(C1COC1)C[C@]21CCOC1)[C@@H]1CC[C@H](C)N1C [I-55]", 0.2],
  ["C[C@H](Oc1nc(-c2noc3c2CCC[C@@]32CCCc3sc(N)c(C#N)c32)nc2c1cnn2[C@@H]1CCOC1)[C@@H]1CCCN1C [II-4]", 0.1],
  ["C[C@H](Oc1nc(-c2onc3c2CCC[C@@]32CCCc3sc(N)c(C#N)c32)nc2c1[nH]c(=O)n2[C@@H]1CCOC1)[C@@H]1CCCN1C [I-8]", 0.4]
]}

From here, focus on the item given below.
Query block: Tell me measured fraction unbound for C[C@H](Oc1nc(-c2onc3c2CCC[C@@]32CCCc3sc(N)c(C#N)c32)nc2c1n(C)c(=O)n2C12COC(C1)C2)[C@@H]1CCCN1C [I-15] please.
Result block: 0.13
